Molecular target: Putative uncharacterized protein pk7 (Plasmodium falciparum)
Sequence (O96214 whole entry): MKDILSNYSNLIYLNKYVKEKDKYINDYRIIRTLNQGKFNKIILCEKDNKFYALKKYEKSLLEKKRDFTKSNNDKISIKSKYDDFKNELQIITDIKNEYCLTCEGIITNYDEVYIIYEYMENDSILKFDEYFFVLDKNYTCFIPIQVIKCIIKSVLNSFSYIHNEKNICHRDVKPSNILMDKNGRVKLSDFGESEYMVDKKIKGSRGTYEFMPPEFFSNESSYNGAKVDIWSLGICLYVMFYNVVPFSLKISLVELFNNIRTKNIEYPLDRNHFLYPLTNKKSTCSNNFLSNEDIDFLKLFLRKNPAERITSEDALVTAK
quantity kind: pIC50
By convention, pIC50 is the negative base-10 log of a molar concentration.

CN(Cc1ccc(F)nc1)c1ccc2ncc(-c3ccc(C#N)cc3)n2n1 = 5.97
CN(Cc1ccc(F)nc1)c1ccc2ncc(-c3ccc(CO)cc3)n2n1 = 4.68
CN(Cc1ccc(F)nc1)c1ccc2ncc(-c3ccc(N)cc3)n2n1 = 4.38
CN(Cc1ccc(F)nc1)c1ccc2ncc(-c3ccc(CN4CCC(O)CC4)cc3)n2n1 = 3.99
CN(Cc1ccc(F)nc1)c1ccc2ncc(-c3ccc(CNCO)cc3)n2n1 = 4.47

**Q:** Look at this molecule and give its reported pIC50. CN(Cc1ccc(F)nc1)c1ccc2ncc(-c3ccc(C(N)=O)cc3)n2n1
**A:** 5.96

Values compiled from ChEMBL document CHEMBL3046532.
